# target: HIV-1 protease (Q7S mutant form) (Human immunodeficiency virus type 1 group M subtype B, UniProt P04585, Q495S)
# Construct: made in house
# assay: HIV-1 Protease RET assay
# Type: biochemical
# conditions-used: Ki, unit inferred
assay-metric: Ki

1. Cc1ccccc1CNC(=O)[C@H]1N(C(=O)[C@@H](O)[C@H](Cc2ccccc2)NC(=O)CC(C)N)CSC1(C)C (some centres unmarked) = 108 nM
2. Cc1ccccc1CNC(=O)[C@@H]1CC(F)(F)CN1C(=O)[C@@H](O)[C@H](Cc1ccccc1)NC(=O)C1C(C)C(=O)ON1C (some centres unmarked) = 3.6 nM
3. Cc1ccccc1CNC(=O)[C@H]1C2CCC(C2)N1C(=O)[C@@H](O)[C@H](Cc1ccccc1)NC(=O)c1cccc(O)c1C (some centres unmarked) = 18.4 nM
4. Cc1ccccc1CNC(=O)[C@H]1N(C(=O)[C@@H](O)[C@H](Cc2ccccc2)NC(=O)/C=C/c2c(C)cccc2C)CSC1(C)C = 99 nM
5. Cc1c(O)cccc1C(=O)N[C@@H](Cc1ccccc1)[C@H](O)C(=O)N1CSC(C)(C)[C@H]1C(=O)N[C@H]1CC1c1ccccc1 (some centres unmarked) = 17.2 nM
6. Cc1ccccc1CNC(=O)[C@H]1N(C(=O)[C@@H](O)[C@H](Cc2ccccc2)NC(=O)C(C)CNC(=O)OC(C)(C)C)CSC1(C)C (some centres unmarked) = 52 nM
7. CC1(C)SCN(C(=O)[C@@H](O)[C@H](Cc2ccccc2)NC(=O)O[C@H]2CCOC2)[C@@H]1C(=O)N[C@@H]1CCOc2ccccc21 = 3.7 nM
8. Cc1ccccc1CNC(=O)C1N(C(=O)[C@@H](O)[C@H](Cc2ccccc2)NC(=O)c2ccc3ccncc3c2)CSC1(C)C (some centres unmarked) = 3.4 nM
9. Cc1ccccc1CNC(=O)[C@H]1N(C(=O)[C@@H](O)[C@H](Cc2ccccc2)NC(=O)OCCCl)CSC1(C)C = 0.44 nM
10. CCCNC(=O)[C@H]1N(C(=O)[C@@H](O)[C@H](Cc2ccccc2)NC(=O)OCCC)CSC1(C)C = 12.7 nM
11. C=CCNC(=O)[C@H]1N(C(=O)[C@@H](O)[C@H](Cc2ccccc2)NC(=O)[C@@H](NC(=O)c2ccc3ccccc3n2)C(C)C)CSC1(C)C = ≤ 0.1 nM
12. Cc1ccccc1CNC(=O)C1N(C(=O)[C@@H](O)[C@H](Cc2ccccc2)NC(=O)CSc2nncn2C)CSC1(C)C (some centres unmarked) = 82 nM
13. CC1(C)SCN(C(=O)[C@@H](O)[C@H](Cc2ccccc2)NC(=O)[C@@H]2CCCO2)[C@@H]1C(=O)N[C@H]1CCCc2ccccc21 = 4.3 nM
14. CCCNC(=O)[C@@H]1CC(F)(F)CN1C(=O)[C@@H](O)[C@H](Cc1ccccc1)NC(=O)O[C@H]1CCOC1 = 42 nM
15. Cc1c(O)cccc1C(=O)N[C@@H](Cc1ccccc1)[C@H](O)C(=O)N1CSC(C)(C)[C@H]1C(=O)NCc1cc(Cl)nc(Cl)c1 = 47 nM
16. CC1(C)SCN(C(=O)[C@@H](O)[C@H](Cc2ccccc2)NC(=O)CSc2nc[nH]n2)[C@@H]1C(=O)NCc1cccs1 = 13.9 nM
17. Cc1c(O)cccc1C(=O)N[C@@H](Cc1ccccc1)[C@H](O)C(=O)N1CSC(C)(C)[C@H]1C(=O)N1CCc2ccccc2C1 = 9 nM
18. Cc1ccccc1CNC(=O)[C@@H]1C2CCC(CC2)N1C(=O)[C@@H](O)[C@H](Cc1ccccc1)NC(=O)c1cccc(O)c1C = 9.8 nM
19. Cc1ccccc1CNC(=O)C1N(C(=O)[C@@H](O)C(Cc2ccccc2)NC(=O)OCc2cccnc2)CSC1(C)C (some centres unmarked) = 27 nM
20. Cc1c(O)cccc1C(=O)N[C@@H](Cc1ccccc1)[C@H](O)C(=O)N1CSC(C)(C)[C@H]1C(=O)NC1CCC(C(C)(C)C)CC1 (some centres unmarked) = 26 nM
21. CC(=O)C(=O)N[C@@H](Cc1ccccc1)[C@H](O)C(=O)N1CSC(C)(C)[C@H]1C(=O)NCc1ccccc1C = 4.7 nM
22. Cc1ccccc1CNC(=O)[C@H]1N(C(=O)[C@@H](O)[C@H](Cc2ccccc2)NC(=O)CN)CSC1(C)C = 110 nM
23. Cc1ccccc1CNC(=O)[C@H]1N(C(=O)[C@@H](O)[C@H](Cc2ccccc2)NC(=O)C2CCNCC2)CSC1(C)C = 45 nM
24. CCCC(C)C(=O)NC(Cc1ccccc1)[C@H](O)C(=O)N1CSC(C)(C)C1C(=O)NCc1ccccc1C (some centres unmarked) = 12.6 nM
25. CC1(C)SCN(C(=O)[C@@H](O)[C@H](Cc2ccccc2)NC(=O)c2cccc3c2CCN3)[C@@H]1C(=O)NCc1cccs1 = 6.8 nM
26. Cc1ccccc1CNC(=O)[C@H]1N(C(=O)[C@@H](O)[C@H](Cc2ccccc2)NC(=O)COc2cccnc2C)CSC1(C)C = 17 nM
27. Cc1ccccc1CNC(=O)[C@H]1N(C(=O)[C@@H](O)C(Cc2ccccc2)NC(=O)CNc2c(C)cccc2C)CSC1(C)C (some centres unmarked) = 2.3 nM
28. CC(=O)Oc1cccc(C(=O)N[C@@H](CSc2ccccc2)[C@H](O)CN2C[C@H]3CCCC[C@H]3C[C@H]2C(=O)NCc2ccccc2C)c1C = 109 nM
29. Cc1ccccc1CNC(=O)[C@H]1N(C(=O)[C@@H](O)[C@H](Cc2ccccc2)NC(=O)[C@@H](NC(=O)COc2cccc(N(C)C)c2)C(C)C)CSC1(C)C = ≤ 0.1 nM

###

# target: HIV-1 protease (Q7S mutant form) (Human immunodeficiency virus type 1 group M subtype B, UniProt P04585, Q495S)
# Construct: made in house
# assay: HIV-1 Protease RET assay
# Type: biochemical
# conditions-used: Ki, unit inferred
assay-metric: log10(Ki) (log10 of the value in nM)

1) Cc1ccccc1CNC(=O)[C@H]1N(C(=O)[C@@H](O)[C@H](Cc2ccccc2)NC(=O)COc2cccc3ncccc23)CSC1(C)C = 1.15
2) Cc1ccccc1CNC(=O)[C@H]1N(C(=O)[C@@H](O)[C@H](Cc2ccccc2)NC(=O)CNC(=O)OC(C)(C)C)CSC1(C)C = 1.94
3) Cc1ccccc1CNC(=O)[C@H]1N(C(=O)[C@@H](O)[C@H](Cc2ccccc2)NC(=O)Oc2ccccc2)CSC1(C)C = 2.57
4) Cc1ccccc1CNC(=O)[C@@H]1C[C@@H]2CCCC[C@@H]2CN1C[C@@H](O)[C@H](CSc1ccccc1)NC(=O)c1cccc(O)c1C = 0.81
5) Cc1ccccc1CNC(=O)[C@@H]1N(C(=O)[C@@H](O)[C@H](Cc2ccccc2)NC(=O)c2cccc(O)c2C)CSC12CCCCC2 = 1.04
6) CC1(C)SCN(C(=O)[C@@H](O)[C@H](Cc2ccccc2)NC(=O)CSc2nc[nH]n2)[C@@H]1C(=O)N[C@H]1CCc2ccccc21 = 0.59
7) Cc1ccccc1CNC(=O)[C@H]1N(C(=O)[C@@H](O)[C@H](Cc2ccccc2)NC(=O)COc2ccccc2C)CSC1(C)C = -0.05
8) Cc1ccccc1CNC(=O)[C@H]1N(C(=O)[C@@H](O)[C@H](Cc2ccccc2)NC(=O)CBr)CSC1(C)C = -0.11
9) Cc1ccccc1CNC(=O)[C@@H]1CSCN1C(=O)[C@@H](O)[C@H](Cc1ccccc1)NC(=O)CCc1c(C)cccc1C = 1.30
10) CC(C)(C)OC(=O)N[C@@H](Cc1ccccc1)[C@H](O)C(=O)N1CSC(C)(C)C1C(=O)NCc1c(F)cccc1F (some centres unmarked) = 1.73
11) Cc1ccccc1CNC(=O)[C@H]1N(C(=O)[C@@H](O)[C@H](Cc2ccccc2)NC(=O)OC(C)(C)C)CSC1(C)C = 0.48
12) CC1(C)SCN(C(=O)[C@@H](O)[C@H](Cc2ccccc2)NC(=O)[C@@H]2CCCO2)[C@@H]1C(=O)N[C@H]1CCOc2ccccc21 = 0.88
13) CC1(C)SCN(C(=O)[C@@H](O)[C@H](Cc2ccccc2)NC(=O)[C@@H]2CCCO2)[C@@H]1C(=O)NC[C@H]1CCCO1 = 1.48

###

# Tested on: 461, 84V, 90M virus
# assay: Phenotypic susceptibility assay at Virologic, Inc.
# Assay type: cell-based, HIV-1
# conditions-used: Human immunodeficiency virus 1, read-out: EC50 or IC50 (mM), values with asterisk (IC50)
# if measured IC50 < 200 nM: Y  # else: N

1. Cc1c(O)cccc1C(=O)N[C@@H](Cc1ccccc1)[C@H](O)C(=O)N1CSC(C)(C)[C@H]1C(=O)NC1CCCCC1 = N
2. Cc1c(O)cccc1C(=O)N[C@@H](Cc1ccccc1)[C@H](O)C(=O)N1CSC(C)(C)[C@H]1C(=O)NCC1CC1 = N
3. Cc1ccccc1CNC(=O)[C@H]1N(C(=O)[C@@H](O)[C@H](Cc2ccccc2)NC(=O)O[C@H]2CCOC2)CSC1(C)C = N
4. Cc1c(O)cccc1C(=O)N[C@@H](Cc1ccccc1)[C@H](O)C(=O)N1CSC(C)(C)[C@H]1C(=O)NCc1ccco1 = Y
5. Cc1c(O)cccc1C(=O)N[C@@H](Cc1ccccc1)[C@H](O)C(=O)N1CSC(C)(C)[C@H]1C(=O)NCc1ccc2c(c1)OCO2 = N
6. Cc1c(O)cccc1C(=O)N[C@@H](Cc1ccccc1)[C@H](O)C(=O)N1CSC(C)(C)[C@H]1C(=O)N[C@H]1CCc2ccccc21 = Y
